Ref: a collection of fitness landscapes (doi:10.1126/science.1257360)

We begin with a simple list: items and their reported enrichment ratio.
B1: PhoQ; a variant is named by its letters at X, in order, P23837 (parent)
chain: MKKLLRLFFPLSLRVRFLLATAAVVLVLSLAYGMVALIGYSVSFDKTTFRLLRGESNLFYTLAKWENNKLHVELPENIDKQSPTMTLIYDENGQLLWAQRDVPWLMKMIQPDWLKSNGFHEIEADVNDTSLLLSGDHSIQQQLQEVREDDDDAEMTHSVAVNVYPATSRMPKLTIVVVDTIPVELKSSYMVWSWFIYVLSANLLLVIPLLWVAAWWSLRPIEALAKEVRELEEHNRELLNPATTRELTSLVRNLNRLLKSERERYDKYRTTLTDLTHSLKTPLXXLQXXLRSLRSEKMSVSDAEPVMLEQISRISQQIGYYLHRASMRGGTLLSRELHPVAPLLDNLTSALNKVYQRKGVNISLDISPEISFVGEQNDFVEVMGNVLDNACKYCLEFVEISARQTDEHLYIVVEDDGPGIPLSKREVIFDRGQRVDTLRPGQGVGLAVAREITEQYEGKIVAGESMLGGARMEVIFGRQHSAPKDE

- Variants of: B1
- Measurement protocol: enrichment ratio after two sorts for PhoP signalling (ratio (wild type AVST 3.29)); higher = more functional
- Test parameters: with PhoP (E. coli)
Whole data set: some 140,000 sequences, median “enrichment ratio after two sorts for PhoP signalling” near 0, cut for the highest 2% near 11. This excerpt belongs to a sample that is enriched for the highest values.
Test readout: enrichment ratio

[
  {
    "Variant key": "ICLV",
    "Sign qualifier": "=",
    "Test result": 18.8
  },
  {
    "Variant key": "EHLY",
    "Sign qualifier": "≤",
    "Test result": 0.25
  },
  {
    "Variant key": "QAMV",
    "Sign qualifier": "≤",
    "Test result": 0.25
  },
  {
    "Variant key": "DPLR",
    "Sign qualifier": "≤",
    "Test result": 0.25
  },
  {
    "Variant key": "QAGQ",
    "Sign qualifier": "=",
    "Test result": 24.5
  },
  {
    "Variant key": "QGGQ",
    "Sign qualifier": "=",
    "Test result": 8.17
  },
  {
    "Variant key": "NAGQ",
    "Sign qualifier": "≤",
    "Test result": 0.25
  },
  {
    "Variant key": "QAMQ",
    "Sign qualifier": "=",
    "Test result": 44.4
  },
  {
    "Variant key": "HKLV",
    "Sign qualifier": "=",
    "Test result": 0.341
  },
  {
    "Variant key": "AALV",
    "Sign qualifier": "=",
    "Test result": 12.9
  },
  {
    "Variant key": "IFLV",
    "Sign qualifier": "≤",
    "Test result": 0.25
  },
  {
    "Variant key": "TPLV",
    "Sign qualifier": "≤",
    "Test result": 0.25
  },
  {
    "Variant key": "QYRN",
    "Sign qualifier": "≤",
    "Test result": 0.25
  },
  {
    "Variant key": "KALV",
    "Sign qualifier": "≤",
    "Test result": 0.25
  },
  {
    "Variant key": "QAVQ",
    "Sign qualifier": "≤",
    "Test result": 0.25
  },
  {
    "Variant key": "KKLV",
    "Sign qualifier": "≤",
    "Test result": 0.25
  },
  {
    "Variant key": "FAMQ",
    "Sign qualifier": "=",
    "Test result": 45
  },
  {
    "Variant key": "TKLV",
    "Sign qualifier": "=",
    "Test result": 23.3
  },
  {
    "Variant key": "MAMQ",
    "Sign qualifier": "≤",
    "Test result": 0.25
  },
  {
    "Variant key": "FAVQ",
    "Sign qualifier": "≤",
    "Test result": 0.25
  },
  {
    "Variant key": "YALV",
    "Sign qualifier": "=",
    "Test result": 11.1
  },
  {
    "Variant key": "FVVK",
    "Sign qualifier": "≤",
    "Test result": 0.25
  }
]
